Source: patent US9409884B2

Biological target: AMPK
Experiment: AMPK activation, enzyme-linked immunosorbent assay
Type: biochemical
Details: Table 12, compounds of Table 5
pEC50: −log10 of the molar value.
measurement.type: pEC50

Example entries and their recorded answers appear below.
| compound | tested.on | pEC50 |
| --- | --- | --- |
| COc1ccc(CN2CCC(NC(=O)c3cccc(OC4CCN(Cc5ccc(C(F)(F)F)cc5)CC4)c3)CC2)cc1 [Compound 5-108] | AMPK | > 6.00 |
| O=C(NC1CCN(Cc2ccccc2)CC1)c1ccc(OC2CCN(Cc3ccccc3)CC2)c(Cl)c1 [Compound 5-14] | AMPK | > 6.00 |
| CC(C)S(=O)(=O)N1CCC(NC(=O)c2ccc(OC3CCN(c4ccc(C(F)(F)F)cc4)CC3)c(F)c2)CC1 [Compound 5-34] | AMPK | > 6.00 |
| O=C(NC1CCN(Cc2ccccc2)CC1)c1ccc(OC2CCN(Cc3ccccn3)CC2)c(F)c1 [Compound 5-39] | AMPK | 5.00 to 6.00 |
| N#Cc1ccc(CN2CCC(Oc3cccc(C(=O)NC4CCN(Cc5ccccc5)CC4)c3)CC2)cc1 [Compound 5-50] | AMPK | 5.00 to 6.00 |

Task item: Please list pEC50 recorded for the compound O=C(NC1CCN(Cc2ccccc2)CC1)c1ccc(OC2CCN(Cc3ccc(Cl)c(Cl)c3)CC2)c(Cl)c1 [Compound 5-84]
Reply: > 6.00

Task item: Return pEC50 (reported value) for this compound: Cc1ccc(CN2CCC(Oc3ccc(C(=O)NC4CCN(Cc5ccc(F)cc5)CC4)cc3Cl)CC2)cc1 [Compound 5-68]
Reply: > 6.00

Task item: Return the recorded pEC50 value; entry: COC(=O)c1ccc(CN2CCC(NC(=O)c3ccc(OC4CCN(c5ccc(C(F)(F)F)cc5)CC4)c(F)c3)CC2)cc1 [Compound 5-33]
Reply: > 6.00

###

Some compounds, each annotated with its measured pEC50.
Target: AMPK
Assay: AMPK activation, enzyme-linked immunosorbent assay
Assay type: biochemical
Details: Table 14, compounds of Table 7
pEC50: −log10 of the molar value.

Example cases with answers are listed next.
| compound | tested.on | observed.measurement |
| --- | --- | --- |
| CC(=O)c1ccc(OC2CCN(C(=O)c3ccc(C(=O)NC4CCN(Cc5ccc(C#N)cc5)C[C@H]4F)cn3)CC2)cc1 (stereo partly shown) | AMPK | > 6.00 |
| CS(=O)(=O)c1ccc(OC2CCN(C(=O)c3ccc(C(=O)Nc4ccc(Oc5ccc(S(F)(F)(F)(F)F)cc5)nc4)nc3)CC2)cc1 | AMPK | > 6.00 |
| COc1ccc(C(=O)C2CCN(C(=O)c3ccc(C(=O)NC4CCN(Cc5ccc(OC(F)(F)F)cc5)C[C@H]4F)cn3)CC2)cc1 (stereo partly shown) | AMPK | > 6.00 |
| CC(C)S(=O)(=O)c1ccc(N2CCN(C(=O)c3ccc(C(=O)Nc4ccc(Oc5ccc(S(F)(F)(F)(F)F)cc5)nc4)nc3)CC2)cc1 | AMPK | > 6.00 |
| CCNS(=O)(=O)c1ccc(CN2CCN(C(=O)c3ccc(C(=O)N4CCC(C(=O)c5ccc(OC)cc5)CC4)nc3)CC2)cc1 | AMPK | 4.70 to 5.00 |

Task item: Supply reported pEC50 belonging to this compound: `O=C(NC1CCN(Cc2ccc(N3CCCC3)cc2)CC1)c1ccc(C(=O)N2CCC(C(=O)c3ccc(N4CCCC4)cc3)CC2)nc1`
Reply: > 6.00

Task item: Complete the entry with pEC50 for COc1ccc(C(=O)C2CCN(C(=O)c3ccc(C(=O)NC4CCN(Cc5ccc(OC)c(F)c5)CC4(C)C)cn3)CC2)cc1 (stereo not shown)
Reply: > 6.00

###

Target: AMPK
Experiment: AMPK activation, enzyme-linked immunosorbent assay
Format: biochemical
Conditions: Table 13, compounds of Table 6
The entries below are paired with their reported EC50.

| structure.as.smiles | tested.on | EC50 |
| --- | --- | --- |
| CS(=O)(=O)c1ccc(CN2CCN(C(=O)c3ccc4oc(C(=O)NC5CCN(Cc6ccc(OC(F)(F)F)c(F)c6)CC5)cc4c3)CC2)cc1 | AMPK | < 100 nM |
| CS(=O)(=O)c1ccc(CN2CCN(C(=O)c3ccc4oc(C(=O)NC5CCN(Cc6ccc(C#N)cc6)CC5)cc4c3)CC2)cc1 | AMPK | < 100 nM |
| COc1cccc(CN2CCC(NC(=O)c3cc4cc(C(=O)N5CCN(Cc6ccc(S(C)(=O)=O)cc6)CC5)ccc4o3)CC2)c1 | AMPK | 1000 to 10000 nM |

Task item: Provide EC50, system AMPK, entry `CCNS(=O)(=O)c1ccc(CN2CCN(C(=O)c3ccc4oc(C(=O)NC5CCN(Cc6ccc(OC)c(F)c6)CC5)cc4c3)CC2)cc1`
Reply: < 100 nM

Task item: Would you please give the reported EC50 of `COc1ccc(N2CCN(C(=O)c3ccc4oc(C(=O)NC5CCN(Cc6ccc(C#N)cc6)CC5)cc4c3)CC2)cc1` with AMPK?
Reply: < 100 nM

Task item: Using AMPK as the test system, report measured EC50 of `O=C(NC1CCN(Cc2ccc(OC(F)(F)F)cc2)CC1)c1cc2cc(C(=O)N3CCN(c4cccc(C(F)(F)F)c4)CC3)ccc2o1` .
Reply: < 100 nM

###

Entries and their pEC50
Target: AMPK
Experiment: AMPK activation, enzyme-linked immunosorbent assay
Format: biochemical
Details: Table 14, compounds of Table 7
pEC50: −log10 of the molar value.

| molecule | pEC50 |
| --- | --- |
| COc1ccc(C(=O)C2CCN(C(=O)c3ccc(C(=O)NC4CCNCC4)cn3)CC2)cc1 | 4.00 to 4.30 |
| COc1ccc(CN2CCC(NC(=O)c3ccc(C(=O)N4CCC(C(=O)c5ccc(N6CCCC6)cc5)CC4)nc3)CC2)cc1F | > 6.00 |
| O=C(NC1CCN(Cc2cccc(OC(F)(F)F)c2)CC1)c1ccc(C(=O)N2CCC(C(=O)c3ccc(N4CCCC4)cc3)CC2)nc1 | > 6.00 |
| COc1ccc(C(=O)C2CCCN(C(=O)c3ccc(C(=O)Nc4ccc(Oc5ccc(F)cc5)nc4)cn3)C2)cc1 (stereo not shown) | 5.00 to 6.00 |
| COc1ccc(C(=O)C2CCN(C(=O)c3ccc(C(=O)NC4CCN(Cc5ccc(C#N)cc5C)C[C@H]4F)cn3)CC2)cc1 (stereo partly shown) | 5.00 to 6.00 |

Task item: Please supply the value of reported pEC50 for the item `CS(=O)(=O)c1ccc(CN2CCN(c3ccc(C(=O)NC4CCN(Cc5ccc(C#N)cc5)CC4)cn3)CC2)cc1`
Reply: 4.70 to 5.00

Task item: Specify measured pEC50 for `O=C(NC1CCN(Cc2ccc(OC(F)(F)F)cc2)CC1)c1ccc(C(=O)N2CCC(Oc3cccc(NC(=O)C4CC4)c3)CC2)nc1` .
Reply: > 6.00

Task item: Assign pEC50 to the following record: COc1ccc(C(=O)C2CCN(C(=O)c3ccc(C(=O)NC4CCN(Cc5ccc(C#N)cc5)C[C@@H]4C(F)(F)F)cn3)CC2)cc1 (stereo partly shown)
Reply: > 6.00

Task item: Dear colleague, please send me the reported pEC50 for `COc1ccc(C(=O)C2CCN(C(=O)c3cc(C)c(C(=O)NC4CCN(Cc5ccc(C#N)cc5)CC4)cn3)CC2)cc1` when you can.
Reply: > 6.00

Task item: Identify measured pEC50 corresponding to `CS(=O)(=O)c1ccc(OC2CCN(C(=O)c3ccc(C(=O)Nc4ccc(Oc5ccc(C#N)cc5)nc4)cn3)CC2)cc1`
Reply: > 6.00

Task item: Please give the documented pEC50 of O=C(NC1CCN(Cc2ccc(OC(F)(F)F)cc2)C[C@H]1F)c1ccc(C(=O)N2CCC(C(=O)c3ccc(N4CCCC4)cc3)CC2)nc1 (stereo partly shown)
Reply: > 6.00

Task item: // Input: COc1ccc(C(=O)C2CCCN(C(=O)c3ccc(C(=O)Nc4ccc(Oc5ccc(C(C)=O)cc5)nc4)cn3)C2)cc1 (stereo not shown) . Output its pEC50 only.
Reply: 5.00 to 6.00

Task item: Respond only with pEC50 recorded for COc1ccc(C(=O)C2CCN(C(=O)c3ccc(C(=O)NC4CCN(Cc5ccc(OC(F)(F)F)cc5)C[C@@H]4C)cn3)CC2)cc1 (stereo partly shown)
Reply: > 6.00

###

Biological target: AMPK
Assay: AMPK activation, enzyme-linked immunosorbent assay
Format: biochemical
Details: Table 13, compounds of Table 6
pEC50: −log10 of the molar value.
measurement.type: pEC50

| structure.as.smiles | observed.measurement |
| --- | --- |
| CS(=O)(=O)c1ccc(CN2CCN(C(=O)c3ccc4oc(C(=O)NC5CCN(Cc6ccc(OC(F)F)cc6)CC5)cc4c3)CC2)cc1 | 6.00 to 7.00 |
| CS(=O)(=O)c1ccc(CN2CCN(C(=O)c3ccc4oc(C(=O)NC5CCN(Cc6ccc(C#N)c(F)c6)CC5)cc4c3)CC2)cc1 | > 7.00 |

Task item: Note pEC50 for the compound shown: `COc1ccc(CN2CCC(NC(=O)c3cc4cc(C(=O)N5CCC(Oc6ccc(C(F)(F)F)cc6)CC5)ccc4o3)CC2)cc1`
Reply: > 7.00

Task item: Entry `N#Cc1ccc(CN2CCC(NC(=O)c3cc4cc(NC(=O)c5ccc(Oc6ccc(F)cc6)nc5)ccc4o3)CC2)cc1` needs its pEC50 filled in; supply it.
Reply: 6.00 to 7.00

Task item: Specify measured pEC50 for `COc1ccc(CN2CCC(C(=O)Nc3ccc4oc(C(=O)NC5CCN(Cc6ccc(C#N)cc6)CC5)cc4c3)CC2)cc1` .
Reply: 5.00 to 6.00

Task item: Return pEC50 for the following compound: `COc1ccc(CN2CCC(NC(=O)c3cc4cc(C(=O)N5CCN(c6cc(C(F)(F)F)cc(C(F)(F)F)c6)CC5)ccc4o3)CC2)cc1`
Reply: > 7.00

Task item: Provide pEC50 value for the following compound: `N#Cc1ccc(CN2CCC(NC(=O)c3cc4cc(C(=O)N5CCN(Cc6ccc(C(F)(F)F)cc6)CC5)ccc4o3)CC2)cc1`
Reply: > 7.00
